Target: T1, recombinant cynomolgus Ang2-FLD (cynomolgus)
T1 construct: domain: FLD; also called cyno Ang2-FLD
Test: SPR (Biacore T100), binder on CM5 chip, Ang2-FLD as analyte
Provide the reported pKd of each item.
Scale explanation: pKd corresponds to minus log10 of a concentration expressed in moles per litre.

**Q:** Requested read-out: pKd. Entry: VHH 11B07 (VHH, also called 011B07; not shown: C-terminal c-myc tag and His6 tag) VHH: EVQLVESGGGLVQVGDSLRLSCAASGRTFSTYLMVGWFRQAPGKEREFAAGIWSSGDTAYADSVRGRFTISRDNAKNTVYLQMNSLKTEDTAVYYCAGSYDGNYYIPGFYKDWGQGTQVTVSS
**A:** 8.21

**Q:** Requested read-out: pKd. Entry: VHH 24B05 (VHH, also called 024B05; not shown: C-terminal c-myc tag and His6 tag) VHH: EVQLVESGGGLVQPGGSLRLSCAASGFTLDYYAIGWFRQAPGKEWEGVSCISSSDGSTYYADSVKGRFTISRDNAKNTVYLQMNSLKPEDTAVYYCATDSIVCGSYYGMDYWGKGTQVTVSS
**A:** 9.23

**Q:** Requested read-out: pKd. Entry: VHH 10H02 (VHH, also called 010H02; not shown: C-terminal c-myc tag and His6 tag) VHH: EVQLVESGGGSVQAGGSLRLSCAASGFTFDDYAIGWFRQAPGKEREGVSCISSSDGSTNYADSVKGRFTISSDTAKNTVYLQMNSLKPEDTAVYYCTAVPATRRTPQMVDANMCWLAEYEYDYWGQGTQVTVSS
**A:** 8.47
